B1: RHOBTB3 (parent)
chain: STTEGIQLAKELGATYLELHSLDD

variants of: B1; test: protein stability index of a GFP-peptide fusion (GPS, HEK-293T) (PSI 1-6); higher = more stable; conditions: c terminus: a fixed tail appended;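 also: lentivirally expressed fusions sorted by FACS into six bins by GFP to DsRed ratio, PSI derived from sequencing read proportions per bin multiplied by bin number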

[
  {
    "mutation-name": "T3M",
    "protein stability index": 2.31
  },
  {
    "mutation-name": "D23L",
    "protein stability index": 2.21
  },
  {
    "mutation-name": "E11A",
    "protein stability index": 1.53
  },
  {
    "mutation-name": "I6M",
    "protein stability index": 3.01
  },
  {
    "mutation-name": "T3G",
    "protein stability index": 4.01
  },
  {
    "mutation-name": "H20W",
    "protein stability index": 1.93
  },
  {
    "mutation-name": "E18L",
    "protein stability index": 2.41
  },
  {
    "mutation-name": "A9V",
    "protein stability index": 2.53
  },
  {
    "mutation-name": "E18F",
    "protein stability index": 2
  },
  {
    "mutation-name": "Y16N",
    "protein stability index": 5.25
  },
  {
    "mutation-name": "H20C",
    "protein stability index": 2.68
  },
  {
    "mutation-name": "E4F",
    "protein stability index": 2.29
  },
  {
    "mutation-name": "L22K",
    "protein stability index": 4.68
  },
  {
    "mutation-name": "H20L",
    "protein stability index": 1.41
  },
  {
    "mutation-name": "D24Q",
    "protein stability index": 1.96
  },
  {
    "mutation-name": "I6K",
    "protein stability index": 3.94
  },
  {
    "mutation-name": "A9C",
    "protein stability index": 3.08
  },
  {
    "mutation-name": "I6T",
    "protein stability index": 1.68
  },
  {
    "mutation-name": "E11I",
    "protein stability index": 2.39
  },
  {
    "mutation-name": "E18P",
    "protein stability index": 3.97
  },
  {
    "mutation-name": "D24V",
    "protein stability index": 1.57
  },
  {
    "mutation-name": "T3A",
    "protein stability index": 2.94
  },
  {
    "mutation-name": "L8A",
    "protein stability index": 4.29
  },
  {
    "mutation-name": "Q7P",
    "protein stability index": 3.65
  },
  {
    "mutation-name": "G5T",
    "protein stability index": 4.16
  },
  {
    "mutation-name": "L8I",
    "protein stability index": 4.41
  },
  {
    "mutation-name": "K10Q",
    "protein stability index": 3.57
  },
  {
    "mutation-name": "T3F",
    "protein stability index": 2.29
  },
  {
    "mutation-name": "L8Y",
    "protein stability index": 4.97
  },
  {
    "mutation-name": "A9R",
    "protein stability index": 3.01
  },
  {
    "mutation-name": "D23Q",
    "protein stability index": 3.55
  },
  {
    "mutation-name": "L8H",
    "protein stability index": 4.53
  },
  {
    "mutation-name": "E4Y",
    "protein stability index": 2.27
  },
  {
    "mutation-name": "I6F",
    "protein stability index": 2.59
  },
  {
    "mutation-name": "A14E",
    "protein stability index": 4.25
  },
  {
    "mutation-name": "E18T",
    "protein stability index": 3.71
  },
  {
    "mutation-name": "A9K",
    "protein stability index": 3.6
  },
  {
    "mutation-name": "L12E",
    "protein stability index": 4.99
  },
  {
    "mutation-name": "I6E",
    "protein stability index": 4.71
  },
  {
    "mutation-name": "E4S",
    "protein stability index": 3.79
  }
]
